The reported measurements were obtained from patent US8349828B2.

M. catarrhalis A894 data, read-out MIC

Examples with their reported MIC follow.
molecule	MIC
O=C1COc2ccc(N3C[C@@H](CNC[C@H]4Cc5c(F)ccc6ccc(=O)n4c56)OC3=O)cc2N1	0.125 mg/L
O=C1COc2ccc(N3C[C@@H](CCNCC4Cc5cccc6ccc(=O)n4c56)OC3=O)cc2N1 (mixture of isomers)	≤ 0.063 mg/L
O=C1COc2ccc(N3C[C@@H](CNC[C@@H]4Cc5c(F)ccc6ccc(=O)n4c56)OC3=O)cc2N1	0.125 mg/L
O=C1CSc2ccc(N3C[C@@H](CNCC4Cc5cccc6ccc(=O)n4c56)OC3=O)cc2N1 (mixture of isomers)	≤ 0.063 mg/L
O=C1CSc2ccc(N3CC(CCNC[C@H]4Cc5c(F)ccc6ccc(=O)n4c56)OC3=O)cc2N1 (mixture of isomers)	≤ 0.063 mg/L

Value lookup for MIC; key = O=C1COc2ccc(N3C[C@@H](CCNCC4Cc5c(F)ccc6ccc(=O)n4c56)OC3=O)cc2N1 (mixture of isomers) ≤ 0.063 mg/L

O=C1CSc2ccc(N3C[C@@H](CNCC4Cn5c(=O)ccc6cccc(c65)O4)OC3=O)cc2N1 (mixture of isomers) , same question. ≤ 0.063 mg/L

`O=C1CSc2ccc(N3C[C@@H](CNC[C@@H]4Cc5cccc6ncc(=O)n4c56)OC3=O)cc2N1` , same question. 0.125 mg/L

O=C1COc2ccc(N3C[C@@H](CNCC4Cc5c(F)cnc6ccc(=O)n(c56)C4)OC3=O)cc2N1 (mixture of isomers) , same question. ≤ 0.063 mg/L

`O=C1CSc2ccc(N3C[C@@H](CCNC[C@H]4Cc5c(F)ccc6ccc(=O)n4c56)OC3=O)cc2N1` , same question. ≤ 0.063 mg/L
